# Tested on: U2OS
# assay details: Multiplex assay against U2OS
# Assay type: toxicity, cell-based
# condition: human, 48 h, 1 µM, compound concentration 1 uM, replicate 1
As shown below, each of these compounds has a reported Population Normal (%) value.

Reference set, count: 2
{"compound": "O=C(O)CCC/C=C\\CC1C(O)CC(O)C1/C=C/C(O)COc1cccc(Cl)c1 (configuration not stated)", "Population Normal (%)": "98%"}
{"compound": "O=c1ccc2ccc(OCCCCN3CCN(c4cccc5sccc45)CC3)cc2[nH]1", "Population Normal (%)": "95%"}

Ask | API: value(readout= Population Normal (%), system= U2OS, query= Cl.Cl.OCCOCCN1CCN(C(c2ccccc2)c2ccc(Cl)cc2)CC1 (configuration not stated) [HYDROXYZINE HYDROCHLORIDE] )
Reply | 97%

Ask | Checklist item: Population Normal (%) tested on U2OS, entry CN1C[C@H](C(=O)N[C@]2(C)O[C@@]3(O)[C@@H]4CCCN4C(=O)[C@H](Cc4ccccc4)N3C2=O)C[C@@H]2c3cccc4[nH]cc(c34)C[C@H]21.CS(=O)(=O)O [DIHYDROERGOTAMINE MESYLATE] , value?
Reply | 97%

Ask | Missing value: Population Normal (%), U2OS, entry O=C(Nc1cc(-c2ccccc2)nn1-c1ccccc1F)c1ccc([N+](=O)[O-])cc1 . Fill in?
Reply | 97%

Ask | Lab note: need Population Normal (%) for C=CCN1C[C@H](C(=O)N(CCCN(C)C)C(=O)NCC)C[C@@H]2c3cccc4[nH]cc(c34)C[C@H]21 on U2OS, anyone have it?
Reply | 97%

Ask | Please state recorded Population Normal (%) (tested on U2OS) of CCc1nn2c(C)cc(C)nc2c1Cc1ccc(-c2nnc(C3CCNCC3)o2)cc1
Reply | 97%
